# assayed target: human Endothelial Differentiation Gene 1 (EDG1) (Homo sapiens)
# Construct: TEV protease site; Gal4-VP16 transcription factor; expressed in transfected cells; host or cells: EDG1-bla/U2OS (Tango GPCR-bla U2OS parental cell line)
# Sequence (P21453 whole entry, the tested form may be a part): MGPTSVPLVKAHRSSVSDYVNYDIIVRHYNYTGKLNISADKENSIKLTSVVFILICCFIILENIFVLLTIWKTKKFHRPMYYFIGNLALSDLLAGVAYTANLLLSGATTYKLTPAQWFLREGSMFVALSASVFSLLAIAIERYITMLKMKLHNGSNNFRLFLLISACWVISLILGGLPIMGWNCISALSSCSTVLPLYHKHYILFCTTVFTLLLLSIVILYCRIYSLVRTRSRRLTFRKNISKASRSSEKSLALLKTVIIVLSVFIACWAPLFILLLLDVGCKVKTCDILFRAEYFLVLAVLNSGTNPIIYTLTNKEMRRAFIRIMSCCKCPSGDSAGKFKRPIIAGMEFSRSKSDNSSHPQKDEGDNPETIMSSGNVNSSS
# test protocol: S1P1 Tango assay - 384 well format
# Format: cell-based
# recorded conditions: EDG1-bla/U2OS cells, agonist
# Description: S1P1 Tango assay—384 Well Format […] 10 μl of 6× substrate mixture (LiveBLAzer™-FRET B/G substrate (CCF4-AM) Cat #K1096 from Invitrogen, Inc.) was added to each well using Bravo and the plates incubated at room temperature for 2 h in the dark. The plate was finally read on EnVision using one excitation channel (409 nm) and two emission channels (460 nm and 530 nm). […]
metric name: EC50

compound="COc1c(CCCC(=O)O)cc(F)cc1-c1noc(-c2ccc(OC(C)C)c(C#N)c2)n1 [Example 31]" recorded_measurement="≤ 1 nM"
compound="CCc1c(CCC(=O)O)cccc1-c1noc(-c2ccc(OC(C)C)c(Cl)c2)n1 [Example 29]" recorded_measurement="≤ 1 nM"
compound="Cc1c(-c2noc(-c3ccc(OC(C)C)c(Cl)c3)n2)ccnc1CCCC(=O)O [Example 7]" recorded_measurement="≤ 10 nM"
compound="COc1c(CCC(=O)O)cc(F)cc1-c1noc(-c2cnc(OC(C)C)c(Cl)c2)n1 [Example 33]" recorded_measurement="≤ 100 nM"
compound="CCc1c(CN(C)CC(=O)O)cccc1-c1cnc(-c2ccc(OC(C)C)c(Cl)c2)s1 [Example 54]" recorded_measurement="≤ 1000 nM"
compound="CC(C)Oc1ccc(-c2nc(-c3cccc(CCC(=O)O)c3C(F)(F)F)no2)cc1C#N [Example 24]" recorded_measurement="≤ 10 nM"
compound="COc1c(CCC(=O)O)cc(F)cc1-c1noc(-c2ccc(OC(C)C)c(Cl)c2)n1 [Example 34]" recorded_measurement="≤ 10 nM"
compound="CCc1c(OCCCC(=O)O)cccc1-c1noc(-c2ccc(OC(C)C)c(Cl)c2)n1 [Example 39]" recorded_measurement="≤ 1 nM"
compound="CC(C)Oc1ccc(-c2nc(-c3cccc(CCCC(=O)O)c3C(F)(F)F)no2)cc1C#N [Example 25]" recorded_measurement="≤ 100 nM"
compound="COc1c(CCCC(=O)O)cc(F)cc1-c1cnc(-c2ccc(OC(C)C)c(C#N)c2)s1 [Example 51]" recorded_measurement="≤ 10 nM"
compound="CCc1c(CCCC(=O)O)cccc1-c1cnc(-c2ccc(OC(C)C)c(C#N)c2)s1 [Example 50]" recorded_measurement="≤ 10 nM"
compound="CCc1c(CCN(C)CC(=O)O)cccc1-c1nsc(-c2ccc(OC(C)C)c(Cl)c2)n1 [Example 49]" recorded_measurement="≤ 1 nM"
compound="CCCc1c(CCCC(=O)O)cccc1-c1noc(-c2ccc(OC(C)C)c(C#N)c2)n1 [Example 37]" recorded_measurement="≤ 10 nM"
compound="CC(C)Oc1ncc(-c2nc(-c3cccc(CCC(=O)O)c3Cl)no2)cc1Cl [Example 8]" recorded_measurement="≤ 10 nM"
compound="CCc1c(-c2cnc(-c3ccc(OC(C)C)c(C#N)c3)s2)ccnc1CCCC(=O)O [Example 58]" recorded_measurement="≤ 1000 nM"
